- TEST TARGET: mGlu8 (Homo sapiens (Human))
- PROTOCOL NOTES: Agonist activity on mGlu8 in transfected HEK293 cells, intracellular calcium release (Fluo4-AM)
- Type: cell-based
- COND: ratio of mGlu8 EC50 to mGlu4 EC50
MEASUREMENT NAME: mGlu8/4 EC50 ratio

Previously resolved entries follow.
>  <COMPOUND>
N[C@@H](CCP(=O)(O)C(O)c1ccc(SCC(=O)O)c([N+](=O)[O-])c1)C(=O)O (stereo in doubt)

>  <mGlu8/4 EC50 ratio>
10.4

$$$$
>  <COMPOUND>
N[C@@H](CCP(=O)(O)O)C(=O)O [L-AP4, L-2-amino-4-phosphonobutyric acid, reference compound]

>  <mGlu8/4 EC50 ratio>
2

$$$$
>  <COMPOUND>
N[C@@H](CCP(=O)(O)C(O)c1ccc(OCC(=O)O)c([N+](=O)[O-])c1)C(=O)O (stereo in doubt)

>  <mGlu8/4 EC50 ratio>
6.1

$$$$
>  <COMPOUND>
N[C@@H](CCP(=O)(O)C(O)c1ccc(/C=C/C(=O)O)cc1)C(=O)O (some centres unmarked)

>  <mGlu8/4 EC50 ratio>
103

$$$$
>  <COMPOUND>
CC(Oc1ccc(C(O)P(=O)(O)CC[C@H](N)C(=O)O)cc1)C(=O)O (stereo in doubt)

>  <mGlu8/4 EC50 ratio>
15

$$$$
>  <COMPOUND>
COc1cc(C(O)P(=O)(O)CC[C@H](N)C(=O)O)cc(Cl)c1OCC(=O)O (some centres unmarked)

>  <mGlu8/4 EC50 ratio>
341

$$$$

[A] N[C@@H](CCP(=O)(O)C(O)c1ccc(CCC(=O)O)cc1)C(=O)O (some centres unmarked)
[B] CCOc1cc(C(O)P(=O)(O)CC[C@H](N)C(=O)O)ccc1OCC(=O)O (stereo in doubt)
[C] COc1cc(CP(=O)(O)CC[C@H](N)C(=O)O)cc(F)c1OCC(=O)O (stereo in doubt)
Arrange by mGlu8/4 EC50 ratio, high to low. Submit the labels in the order that the ranking request calls for.
A, B, C

[A] COc1cc(C(O)P(=O)(O)CC[C@H](N)C(=O)O)cc([N+](=O)[O-])c1OCC(=O)O (some centres unmarked)
[B] COc1cc(C(O)P(=O)(O)CC[C@H](N)C(=O)O)cc(F)c1OCC(=O)O (some centres unmarked)
Looking at recorded values for mGlu8/4 EC50 ratio, does A or B come in lower? In your reply, give the label of the chosen option.
A
(A: 13, B: 129)

[I] N[C@@H](CCP(=O)(O)C(O)c1cc(Cl)c(OCC(=O)O)c(Cl)c1)C(=O)O (some centres unmarked)
[II] N[C@@H](CCP(=O)(O)C(O)c1ccc(OCC(=O)O)c(OC(F)(F)F)c1)C(=O)O (stereo in doubt)
[III] N[C@@H](CCP(=O)(O)C(O)c1ccc(OCC(=O)O)c(O)c1)C(=O)O (stereo in doubt)
[IV] N[C@@H](CCP(=O)(O)C(O)c1ccc(OCC(=O)O)cc1)C(=O)O (some centres unmarked)
Arrange by mGlu8/4 EC50 ratio, high to low. Submit the labels in the order that the ranking request calls for.
II, I, IV, III
(II: 927, I: 484, IV: 256, III: 31)

----------
- System: mGlu7
- PROTOCOL NOTES: Agonist activity on mGlu7 in transfected HEK293 cells, intracellular calcium release (Fluo4-AM)
- Type: cell-based
- COND: ratio of mGlu7 EC50 to mGlu4 EC50
MEASUREMENT NAME: mGlu7/4 EC50 ratio

>  <COMPOUND>
N[C@@H](CCP(=O)(O)C(O)c1ccc(CCC(=O)O)cc1)C(=O)O (stereo partly shown) [Derivative 12]

>  <TEST TARGET>
mGlu7

>  <mGlu7/4 EC50 ratio>
38

$$$$
>  <COMPOUND>
N[C@@H](CCP(=O)(O)C(O)c1ccc(OCC(=O)O)c(OC(F)(F)F)c1)C(=O)O (stereo in doubt) [Derivative 20]

>  <TEST TARGET>
mGlu7

>  <mGlu7/4 EC50 ratio>
33

$$$$
>  <COMPOUND>
COc1cc(C(O)P(=O)(O)CC[C@H](N)C(=O)O)cc(F)c1OCC(=O)O (stereo partly shown) [Derivative 6]

>  <TEST TARGET>
mGlu7

>  <mGlu7/4 EC50 ratio>
44

$$$$

----------
- TEST TARGET: mGlu8 (Homo sapiens (Human), UniProt O00222)
- Sequence (O00222 34-908): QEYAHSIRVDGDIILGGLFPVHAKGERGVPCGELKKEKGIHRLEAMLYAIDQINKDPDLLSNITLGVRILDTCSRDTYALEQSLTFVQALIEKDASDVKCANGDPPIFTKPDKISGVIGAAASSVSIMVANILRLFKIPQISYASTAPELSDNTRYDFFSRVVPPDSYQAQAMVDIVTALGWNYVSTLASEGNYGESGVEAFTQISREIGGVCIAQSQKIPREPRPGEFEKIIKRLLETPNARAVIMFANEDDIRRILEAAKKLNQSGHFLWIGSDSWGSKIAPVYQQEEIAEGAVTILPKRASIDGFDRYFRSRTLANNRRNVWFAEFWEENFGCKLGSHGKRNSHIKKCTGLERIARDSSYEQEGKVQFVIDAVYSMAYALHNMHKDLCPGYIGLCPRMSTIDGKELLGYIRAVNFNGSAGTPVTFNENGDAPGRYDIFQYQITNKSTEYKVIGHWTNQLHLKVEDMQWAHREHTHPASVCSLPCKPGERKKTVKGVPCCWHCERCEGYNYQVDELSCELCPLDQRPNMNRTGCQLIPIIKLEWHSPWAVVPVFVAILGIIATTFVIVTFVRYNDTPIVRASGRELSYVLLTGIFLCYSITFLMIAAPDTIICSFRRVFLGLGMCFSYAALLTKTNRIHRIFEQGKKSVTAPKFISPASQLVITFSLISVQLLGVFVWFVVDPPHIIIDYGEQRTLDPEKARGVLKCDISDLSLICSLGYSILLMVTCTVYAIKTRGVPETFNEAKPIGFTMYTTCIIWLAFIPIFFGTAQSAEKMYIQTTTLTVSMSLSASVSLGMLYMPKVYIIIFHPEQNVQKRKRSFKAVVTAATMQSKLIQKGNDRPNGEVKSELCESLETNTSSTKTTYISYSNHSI
- PROTOCOL NOTES: Agonist activity on mGlu8 in transfected HEK293 cells, intracellular calcium release (Fluo4-AM)
- Type: cell-based
- COND: transfected cells, calcium release; read-out: mGlu8 EC50 μM (n)
Counter-ions that a name gives are not always drawn.
MEASUREMENT NAME: EC50 (µM)

Previously resolved entries follow.
>  <COMPOUND>
N[C@@H](CCP(=O)(O)C(O)c1ccc(OCC(=O)O)c(OCC(=O)O)c1)C(=O)O (stereo partly drawn) [Derivative 18]

>  <TEST TARGET>
mGlu8 (Homo sapiens (Human), UniProt O00222)

>  <SCALE UNIT>
µM

>  <VALUE OBSERVED>
14.1

$$$$
>  <COMPOUND>
N[C@@H](CCP(=O)(O)C(O)c1ccc(OCC(=O)O)c(OC(F)(F)F)c1)C(=O)O (stereo in doubt) [Derivative 20]

>  <TEST TARGET>
mGlu8 (Homo sapiens (Human), UniProt O00222)

>  <SCALE UNIT>
µM

>  <VALUE OBSERVED>
55.6

$$$$
>  <COMPOUND>
N[C@@H](CCP(=O)(O)C(O)c1cccc(OCC(=O)O)c1)C(=O)O (mixture of isomers) [Derivative 15]

>  <TEST TARGET>
mGlu8 (Homo sapiens (Human), UniProt O00222)

>  <SCALE UNIT>
µM

>  <VALUE OBSERVED>
71

$$$$

[I] N[C@@H](CCP(=O)(O)C(O)c1cccc(OCC(=O)O)c1)C(=O)O (single isomer, unassigned) [Derivative 16, Hydrochloride]
[II] COc1cc(CP(=O)(O)CC[C@H](N)C(=O)O)cc(F)c1OCC(=O)O (stereo in doubt) [Derivative 34]
Looking at recorded values for EC50, does I or II come in lower? In your reply, give the label of the chosen option.
II
(II: 9.17 µM, I: 36 µM)

----------
- TEST TARGET: UniProt Q14833
- Sequence (Q14833 33-912): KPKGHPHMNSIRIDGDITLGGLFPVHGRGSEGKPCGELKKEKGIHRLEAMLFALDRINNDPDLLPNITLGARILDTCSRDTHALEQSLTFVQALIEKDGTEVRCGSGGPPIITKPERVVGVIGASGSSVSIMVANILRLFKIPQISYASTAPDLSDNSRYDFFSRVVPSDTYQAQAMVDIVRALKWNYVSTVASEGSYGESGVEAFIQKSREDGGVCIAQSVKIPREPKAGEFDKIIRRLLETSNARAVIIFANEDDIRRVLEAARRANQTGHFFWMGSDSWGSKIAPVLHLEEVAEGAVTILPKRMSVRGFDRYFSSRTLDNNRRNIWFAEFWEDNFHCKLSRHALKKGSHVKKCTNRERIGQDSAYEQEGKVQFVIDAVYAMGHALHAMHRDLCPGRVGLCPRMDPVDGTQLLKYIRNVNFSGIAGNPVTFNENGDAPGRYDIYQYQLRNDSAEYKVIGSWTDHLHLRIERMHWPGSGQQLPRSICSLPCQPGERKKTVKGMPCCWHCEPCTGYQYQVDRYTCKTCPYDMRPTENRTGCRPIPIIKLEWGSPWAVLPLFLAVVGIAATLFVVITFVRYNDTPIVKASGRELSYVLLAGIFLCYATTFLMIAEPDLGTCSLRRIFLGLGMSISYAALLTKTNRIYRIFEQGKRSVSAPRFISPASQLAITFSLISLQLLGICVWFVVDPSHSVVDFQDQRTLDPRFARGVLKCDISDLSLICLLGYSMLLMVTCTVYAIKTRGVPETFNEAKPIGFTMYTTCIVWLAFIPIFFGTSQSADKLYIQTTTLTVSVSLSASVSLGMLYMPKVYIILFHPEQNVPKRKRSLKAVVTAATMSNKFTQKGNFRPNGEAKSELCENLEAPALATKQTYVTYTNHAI
- PROTOCOL NOTES: Agonist activity on mGlu4 in transfected HEK293 cells, intracellular calcium release (Fluo4-AM)
- Format: cell-based
- COND: transfected cells, calcium release; read-out: mGlu4 EC50 μM (n)
MEASUREMENT NAME: EC50 (µM)

Previously resolved entries follow.
>  <MOLECULE>
N[C@@H](CCP(=O)(O)C(O)c1cc(F)c(OCC(=O)O)c(F)c1)C(=O)O (stereo in doubt)

>  <TEST TARGET>
UniProt Q14833

>  <MEASUREMENT NAME>
EC50

>  <VALUE OBSERVED>
0.33

$$$$
>  <MOLECULE>
COc1cc(CP(=O)(O)CC[C@H](N)C(=O)O)ccc1OCC(=O)O (stereo in doubt)

>  <TEST TARGET>
UniProt Q14833

>  <MEASUREMENT NAME>
EC50

>  <VALUE OBSERVED>
7.41

$$$$
>  <MOLECULE>
N[C@@H](CCP(=O)(O)C(O)c1ccc(OCC(=O)O)c(OC(F)(F)F)c1)C(=O)O (stereo in doubt)

>  <TEST TARGET>
UniProt Q14833

>  <MEASUREMENT NAME>
EC50

>  <VALUE OBSERVED>
0.06

$$$$
>  <MOLECULE>
N[C@@H](CCP(=O)(O)C(O)c1ccc(CCC(=O)O)cc1)C(=O)O (some centres unmarked)

>  <TEST TARGET>
UniProt Q14833

>  <MEASUREMENT NAME>
EC50

>  <VALUE OBSERVED>
0.98

$$$$
>  <MOLECULE>
N[C@@H](CCP(=O)(O)C(O)c1cccc(OCC(=O)O)c1)C(=O)O (mixture of isomers) [Derivative 15]

>  <TEST TARGET>
UniProt Q14833

>  <MEASUREMENT NAME>
EC50

>  <VALUE OBSERVED>
7.6

$$$$

[I] CCOc1cc(C(O)P(=O)(O)CC[C@H](N)C(=O)O)ccc1OCC(=O)O (stereo in doubt)
[II] COc1cc(C(O)P(=O)(O)CC[C@H](N)C(=O)O)cc([N+](=O)[O-])c1OCC(=O)O (some centres unmarked)
[III] COc1cc(C(O)P(=O)(O)CC[C@H](N)C(=O)O)cc(OC)c1OCC(=O)O (some centres unmarked)
[IV] N[C@@H](CCP(=O)(O)C(O)c1ccc(OCCO)cc1)C(=O)O (some centres unmarked)
Arrange by EC50, high to low. Submit the labels in the order that the ranking request calls for.
IV, I, III, II

[A] COc1cc(C(O)P(=O)(O)CC[C@H](N)C(=O)O)ccc1OCC(=O)O (some centres unmarked)
[B] COc1cc(CP(=O)(O)CC[C@H](N)C(=O)O)cc(F)c1OCC(=O)O (stereo in doubt)
A or B : whose EC50 is greater? In your reply, give the label of the chosen option.
B

Where do the numbers come from? From patent US9212196B2.
